Target: human Cot/Tpl2 kinase (Homo sapiens, UniProt P41279)
Construct: human Cot/Tpl2 kinase construct encoding residues 30-398; 6His (N); made in house; host or cells: Sf9 insect cells, baculovirus system (BD Biosciences)
Sequence (P41279 30-398): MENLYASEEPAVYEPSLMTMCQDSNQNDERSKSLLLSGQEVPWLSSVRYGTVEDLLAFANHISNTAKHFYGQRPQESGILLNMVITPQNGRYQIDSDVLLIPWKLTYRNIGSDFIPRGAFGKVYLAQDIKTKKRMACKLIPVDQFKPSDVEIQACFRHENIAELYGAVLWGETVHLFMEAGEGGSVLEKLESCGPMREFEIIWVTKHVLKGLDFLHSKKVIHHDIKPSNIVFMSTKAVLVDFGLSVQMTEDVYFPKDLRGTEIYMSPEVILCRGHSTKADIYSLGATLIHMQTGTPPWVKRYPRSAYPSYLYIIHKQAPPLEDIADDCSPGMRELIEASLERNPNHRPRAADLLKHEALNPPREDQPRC
Assay: Tpl2/Cot kinase assay: GST-MEK1 phosphorylation detected by ELISA (DELFIA Eu)
Type: biochemical
Conditions: Table 2; Tpl2/Cot kinase, GST-MEK1 substrate, 50 uM ATP
Field: IC50. Provide a value for each of the molecules that follow.
Give the value in nM but do not write nM after it.

Task: What is its IC50 for human Cot/Tpl2 kinase (Homo sapiens, UniProt P41279)? Entry: "CS(=O)(=O)CCn1cnc(CNc2cc(Br)c3ncc(C#N)c(Nc4ccc(F)c(Cl)c4)c3c2)c1"
Output: 43

Task: What is its IC50 for human Cot/Tpl2 kinase (Homo sapiens, UniProt P41279)? Entry: "CN(C)CCCc1nc[nH]c1CNc1cc(Cl)c2ncc(C#N)c(Nc3ccc(F)c(Cl)c3)c2c1"
Output: 130

Task: What is its IC50 for human Cot/Tpl2 kinase (Homo sapiens, UniProt P41279)? Entry: "CCN1CCC(Cn2cc(CNc3cc(Br)c4ncc(C#N)c(Nc5ccc(F)c(Cl)c5)c4c3)nn2)CC1"
Output: 40

---

Field: IC50. Provide a value for each of the molecules that follow.
Molecular target: human Cot/Tpl2 kinase (Homo sapiens, UniProt P41279)
Construct: human Cot/Tpl2 kinase construct encoding residues 30-398; 6His (N); made in house; host or cells: Sf9 insect cells, baculovirus system (BD Biosciences)
Test: Tpl2/Cot kinase assay: GST-MEK1 phosphorylation detected by ELISA (DELFIA Eu)
Format: biochemical
Conditions: Tpl2/Cot kinase, GST-MEK1 substrate, 50 uM ATP
Experimental: Sf9 cells expressing the kinase were lysed in 50 mM NaPhosphate pH=8; 300 mM NaCl; 5 mM imidazole; 0.1 mM EGTA; 25 mM beta-glycerophosphate; 1% TX-100, 1% glycerol; 6 mM beta-mercaptoethanol and protease inhibitors. […] Tpl2/Cot activity was directly assayed using GST-MEK1 as a substrate. GST-MEK1 phosphorylation on serine residues 217 and 221 was detected by ELISA. […] After a final wash, Eu detection solution was added to each well and the Eu signal was measured in a Wallac Victor^2 Multilabel Counter. […]
Give the value in nM but do not write nM after it.

Task: For the molecule Cc1cc(Cn2cc(CNc3cc(Cl)c4ncc(C#N)c(Nc5ccc(F)c(Cl)c5)c4c3)nn2)ccn1 [Example 837] , what IC50 is on record?
Output: 11

Task: For the molecule CCNC(=O)N1CCC[C@@H]1Cn1cc(CNc2cc(Cl)c3ncc(C#N)c(Nc4ccc(F)c(Cl)c4)c3c2)nn1 [Example 899] , what IC50 is on record?
Output: 0.6

Task: For the molecule CN(CCn1cc(CNc2cc(Cl)c3ncc(C#N)c(Nc4ccc(F)c(Cl)c4)c3c2)nn1)C(=O)OC(C)(C)C [Example 676] , what IC50 is on record?
Output: 48

Task: For the molecule CC(C)(C)OC(=O)N1CCN(CCCn2cc(CNc3cc(Br)c4ncc(C#N)c(Nc5ccc(F)c(Cl)c5)c4c3)nn2)CC1 [Example 764] , what IC50 is on record?
Output: 1300

Task: For the molecule Cc1ncccc1Cn1cc(CNc2cc(Cl)c3ncc(C#N)c(Nc4ccc(F)c(Cl)c4)c3c2)nn1 [Example 840] , what IC50 is on record?
Output: 10

Task: For the molecule N#Cc1cnc2c(Cl)cc(NCC(O)CO)cc2c1Nc1ccc(F)c(Cl)c1 (stereo not drawn) [Example 797] , what IC50 is on record?
Output: 590

Task: For the molecule CC(CNc1cc(Cl)c2ncc(C#N)c(Nc3ccc(F)c(Cl)c3)c2c1)c1ccncc1 (stereo not drawn) [Example 806] , what IC50 is on record?
Output: 200

Task: For the molecule CC(=O)N1CCC(CCn2cc(CNc3cc(Cl)c4ncc(C#N)c(Nc5ccc(F)c(Cl)c5)c4c3)nn2)CC1 [Example 832] , what IC50 is on record?
Output: 1.2

Task: For the molecule CC(=O)N1CCC(CNc2cc(Cl)c3ncc(C#N)c(Nc4ccc(F)c(Cl)c4)c3c2)CC1 [Example 866] , what IC50 is on record?
Output: 260

Task: For the molecule CN(C)C(=O)N1CCC[C@H]1Cn1cc(CNc2cc(Cl)c3ncc(C#N)c(Nc4ccc(F)c(Cl)c4)c3c2)nn1 [Example 900] , what IC50 is on record?
Output: 0.5

Task: For the molecule CN(C)CCCn1cc(CNc2cc(Br)c3ncc(C#N)c(Nc4ccc(F)c(Cl)c4)c3c2)nn1 [Example 662] , what IC50 is on record?
Output: 20

Task: For the molecule CC1CC(C)CN(CCCn2cc(CNc3cc(Cl)c4ncc(C#N)c(Nc5ccc(F)c(Cl)c5)c4c3)nn2)C1 (stereo not drawn) [Example 800] , what IC50 is on record?
Output: 150

Task: For the molecule C=CCn1cc(CNc2cc(Br)c3ncc(C#N)c(Nc4ccc(F)c(Cl)c4)c3c2)nn1 [Example 732] , what IC50 is on record?
Output: 20

Task: For the molecule CC(C)N1CCCC1Cn1cc(CNc2cc(Br)c3ncc(C#N)c(Nc4ccc(F)c(Cl)c4)c3c2)nn1 (stereo not drawn) [Example 878] , what IC50 is on record?
Output: 110

Task: For the molecule N#Cc1cnc2c(Br)cc(NCc3cn(CC4CCCNC4)nn3)cc2c1Nc1ccc(F)c(Cl)c1 (stereo not drawn) [Example 718] , what IC50 is on record?
Output: 33

Task: For the molecule N#Cc1cnc2c(Cl)cc(NCc3cn(CCc4ccccn4)nn3)cc2c1Nc1ccc(F)c(Cl)c1 [Example 746] , what IC50 is on record?
Output: 25

Task: For the molecule CC(C)N1CCC(Nc2ccc3ncc(C#N)c(Nc4ccc(F)c(Cl)c4)c3c2)CC1 [Example 658] , what IC50 is on record?
Output: 25500

Task: For the molecule N#Cc1cnc2c(Cl)cc(NCC(=O)NCc3cccnc3)cc2c1Nc1ccc(F)c(Cl)c1 [Example 771] , what IC50 is on record?
Output: 200

Task: For the molecule N#Cc1cnc2c(Cl)cc(NCc3cn(CC(=O)N4CCCCCC4)nn3)cc2c1Nc1ccc(F)c(Cl)c1 [Example 814] , what IC50 is on record?
Output: 4.6

Task: For the molecule CC(C)(C)CN1CCC(n2cc(CNc3cc(Br)c4ncc(C#N)c(Nc5ccc(F)c(Cl)c5)c4c3)nn2)CC1 [Example 715] , what IC50 is on record?
Output: 190

Task: For the molecule CC(=O)N(CCNc1cc(Cl)c2ncc(C#N)c(Nc3ccc(F)c(Cl)c3)c2c1)Cc1ccncc1 [Example 844] , what IC50 is on record?
Output: 60

Task: For the molecule N#Cc1cnc2c(Br)cc(NCc3cn(C4CN5CCC4CC5)nn3)cc2c1Nc1ccc(F)c(Cl)c1 (stereo not drawn) [Example 838] , what IC50 is on record?
Output: 10

Task: For the molecule CN(C)CCc1nc[nH]c1CNc1cc(Br)c2ncc(C#N)c(Nc3ccc(F)c(Cl)c3)c2c1 [Example 745] , what IC50 is on record?
Output: 240

Task: For the molecule CN(CCn1cc(CNc2cc(Br)c3ncc(C#N)c(Nc4ccc(F)c(Cl)c4)c3c2)nn1)C(=O)OC(C)(C)C [Example 678] , what IC50 is on record?
Output: 67

Task: For the molecule N#Cc1cnc2c(Cl)cc(NCc3cn(CCCNC4CCCC4)nn3)cc2c1Nc1ccc(F)c(Cl)c1 [Example 914] , what IC50 is on record?
Output: 52

---

Molecular target: human Cot/Tpl2 kinase (Homo sapiens)
Construct: human Cot/Tpl2 kinase construct encoding residues 30-398; 6His (N); made in house; host or cells: Sf9 insect cells, baculovirus system (BD Biosciences)
Assay: Tpl2/Cot kinase assay: GST-MEK1 phosphorylation detected by ELISA (DELFIA Eu)
Type: biochemical
Conditions: 0.4 nM Tpl2, 35 nM GST-MEK1, 50 uM ATP, 1 h at 30° C.
Field: IC50. Provide a value for each of the compounds that follow.
Give the value in µM but do not write µM after it.

Task: For the compound "N#Cc1cnc2ccc(NCC(N)=O)cc2c1Nc1ccc(F)c(Cl)c1" , what IC50 is on record?
Output: 4.3

Task: For the compound "Cc1ncc(CNc2cc(Br)c3ncc(C#N)c(Nc4ccc(F)c(Cl)c4)c3c2)[nH]1" , what IC50 is on record?
Output: 0.17

Task: For the compound "N#Cc1cnc2ccc(NCc3ccc(S(N)(=O)=O)cc3)cc2c1Nc1ccc(F)c(Cl)c1" , what IC50 is on record?
Output: 0.114

Task: For the compound "N#Cc1cnc2c(Br)cc(NCc3cnc[nH]3)cc2c1Nc1ccc(F)c(Cl)c1" , what IC50 is on record?
Output: 0.0068

Task: For the compound "Cc1c(CNc2cc(Cl)c3ncc(C#N)c(Nc4ccc(F)c(Cl)c4)c3c2)ncn1C" , what IC50 is on record?
Output: 0.022

Task: For the compound "CC(C)(C)Nc1c(C#N)cnc2c(Br)cc(NCc3cccc[n+]3[O-])cc12" , what IC50 is on record?
Output: 1.5

Task: For the compound "N#Cc1cnc2c(Br)cc(NCc3[nH]cnc3C(F)(F)F)cc2c1Nc1ccc(F)c(Cl)c1" , what IC50 is on record?
Output: 0.31
